Assay: chemical genetic growth profiling, strain panel (AID 1159580);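 further: tested at 20 µM; growth read once vehicle control cultures reached saturation at 30 °C; lower values mean less growth of the strain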
Settings: S. cerevisiae deletion strains, growth OD, locus YMR223W, strain ubp8
The whole screen tested about 5,500 compounds, of which about 2,000 (36%) were called active. Inconclusive results (about 18%) are left out. No stated cut-off is given here; in the data, active means normalized growth mostly below about 0.91 (no sharp cut-off); inconclusive means no clear call, values can overlap the other calls; inactive means mostly above about 0.92. The list shows a part of the results.
In this exercise, the only acceptable responses are true for active, false for inactive

Record excerpt, results attached:
Query: Hi team, can someone confirm the assay call for CC[N+](CC)(CC)CCOc1cccc(OCC[N+](CC)(CC)CC)c1OCC[N+](CC)(CC)CC ?
Result: false

Query: Hi team, can someone confirm the assay call for COc1cc([C@@H]2c3cc4c(c(O)c3C[C@H]3COC(=O)[C@@H]32)OCO4)cc(OC)c1OC ?
Result: false

Query: Hi team, can someone confirm the assay call for COC(=O)C(C)c1ccc(C(=O)c2cccs2)cc1 (stereo not drawn) ?
Result: false

Query: Hi team, can someone confirm the assay call for C=C1C(=O)O[C@@H]2C[C@@]3(C)CCC[C@H](C)C3=C[C@H]12 ?
Result: true

Query: Hi team, can someone confirm the assay call for COC(=O)[C@@H]1OC(=O)[C@H]2O[C@@]23[C@@]1(C)CCC1[C@@]2(C)CCC(=O)C(C)(C)C2C[C@@H](OC(C)=O)[C@]13C (stereo partly drawn) ?
Result: false

Query: Hi team, can someone confirm the assay call for CC(C(=O)O)c1ccc(C(=O)c2cccs2)cc1 (stereo not drawn) ?
Result: false

We now examine a further compound.
Query: Hi team, can someone confirm the assay call for CC1OC1P(=O)(O)O (stereo not drawn) ?
Result: false

Entry source: PubChem BioAssay AID1159580
